Test system: SCID mice bearing twin HEK293-CCK2i4svR and wtHEK293 tumors
Assay: Biodistribution in SCID mice bearing twin HEK293-CCK2i4svR and wtHEK293 xenografts
Type: in vivo
Conditions: 24 h pi
recorded_endpoint: Biodistribution, Kidneys
Kindly format the answer as number then unit.

Worked set:
| compound | Biodistribution, Kidneys |
| --- | --- |
| CC(C)(C)C(=O)CN1C(=O)[C@H](NC(=O)Nc2cccc(C(=O)NCCOCCOCCOCCNC(=O)[C@H](CCC(=O)O)NC(=O)CN3CCN(CC(=O)[O-])CCN(CC(=O)[O-])CCN(CC(=O)[O-])CC3)c2)CN(C2CCCCC2)c2ccccc21.[111In+3] (stereo in doubt) [[^111In]In-GAS1] | 1.84 ± 0.38 %IA/g |
| CC(C)(C)C(=O)CN1C(=O)[C@H](NC(=O)Nc2cccc(C(=O)NCCOCCOCCOCCNC(=O)[C@H](CCC(=O)O)NC(=O)CCC(C(=O)O)N3CCN(CC(=O)[O-])CCN(CC(=O)[O-])CCN(CC(=O)[O-])CC3)c2)CN(C2CCCCC2)c2ccccc21.[177Lu+3] (stereo in doubt) [[^177Lu]Lu-GAS3] | 1.42 ± 0.29 %IA/g |
| CC(C)(C)C(=O)CN1C(=O)[C@H](NC(=O)Nc2cccc(C(=O)NCCOCCOCCOCCNC(=O)[C@H](CCC(=O)O)NC(=O)CCC(C(=O)O)N3CCN(CC(=O)[O-])CCN(CC(=O)[O-])CCN(CC(=O)[O-])CC3)c2)CN(C2CCCCC2)c2ccccc21.[67Ga+3] (stereo in doubt) [[^67Ga]Ga-GAS3] | 1.98 ± 0.45 %IA/g |
| CC(C)(C)C(=O)CN1C(=O)[C@H](NC(=O)Nc2cccc(C(=O)NCCOCCOCCOCCNC(=O)[C@H](CCC(=O)O)NC(=O)CN3CCN(CC(=O)[O-])CCN(CC(=O)[O-])CCN(CC(=O)[O-])CC3)c2)CN(C2CCCCC2)c2ccccc21.[67Ga+3] (stereo in doubt) [[^67Ga]Ga-GAS1] | 0.88 ± 0.17 %IA/g |
| CC(C)(C)C(=O)CN1C(=O)[C@H](NC(=O)Nc2cccc(C(=O)NCCOCCOCCOCCNC(=O)[C@@H](CCC(=O)O)NC(=O)CCC(C(=O)[O-])N3CCN(CC(=O)[O-])CCN(CC(=O)[O-])CC3)c2)CN(C2CCCCC2)c2ccccc21.[111In+3] (some centres unmarked) [[^111In]In-GAS2] | 10.16 ± 2.30 %IA/g |
| CC(C)(C)C(=O)CN1C(=O)[C@H](NC(=O)Nc2cccc(C(=O)NCCOCCOCCOCCNC(=O)[C@H](CCC(=O)O)NC(=O)CN3CCN(CC(=O)[O-])CCN(CC(=O)[O-])CCN(CC(=O)[O-])CC3)c2)CN(C2CCCCC2)c2ccccc21.[177Lu+3] (stereo in doubt) [[^177Lu]Lu-GAS1] | 1.05 ± 0.12 %IA/g |
| CC(C)(C)C(=O)CN1C(=O)[C@H](NC(=O)Nc2cccc(C(=O)NCCOCCOCCOCCNC(=O)[C@@H](CCC(=O)O)NC(=O)CCC(C(=O)O)N3CCN(CC(=O)[O-])CCN(CC(=O)[O-])CCN(CC(=O)[O-])CC3)c2)CN(C2CCCCC2)c2ccccc21.[111In+3] (some centres unmarked) [[^111In]In-GAS3] | 4.15 ± 1.06 %IA/g |

Could you now look at the following compound, please?
Incoming: Report its Biodistribution, Kidneys with SCID mice bearing twin HEK293-CCK2i4svR and wtHEK293 tumors as the test system: CC(C)(C)C(=O)CN1C(=O)[C@H](NC(=O)Nc2cccc(C(=O)NCCOCCOCCOCCNC(=O)[C@H](CCC(=O)O)NC(=O)CCC(C(=O)[O-])N3CCN(CC(=O)[O-])CCN(CC(=O)[O-])CC3)c2)CN(C2CCCCC2)c2ccccc21.[67Ga+3] (stereo in doubt) [[^67Ga]Ga-GAS2]
Outgoing: 0.06 ± 0.01 %IA/g

###

# Lookup of reported Biodistribution, Intestines keyed by entry
Tested on: SCID mice bearing twin HEK293-CCK2i4svR and wtHEK293 tumors
Assay: Biodistribution in SCID mice bearing twin HEK293-CCK2i4svR and wtHEK293 xenografts
Assay type: in vivo
Conditions: 4 h pi
Number in %IA/g, nothing else.

| compound | Biodistribution, Intestines (%IA/g) |
| --- | --- |
| CC(C)(C)C(=O)CN1C(=O)[C@H](NC(=O)Nc2cccc(C(=O)NCCOCCOCCOCCNC(=O)[C@@H](CCC(=O)O)NC(=O)CCC(C(=O)[O-])N3CCN(CC(=O)[O-])CCN(CC(=O)[O-])CC3)c2)CN(C2CCCCC2)c2ccccc21.[111In+3] (some centres unmarked) [[^111In]In-GAS2] | 9.71 |

Could you now look at the following compound, please?
Incoming: For the compound CC(C)(C)C(=O)CN1C(=O)[C@H](NC(=O)Nc2cccc(C(=O)NCCOCCOCCOCCNC(=O)[C@H](CCC(=O)O)NC(=O)CN3CCN(CC(=O)[O-])CCN(CC(=O)[O-])CCN(CC(=O)[O-])CC3)c2)CN(C2CCCCC2)c2ccccc21.[67Ga+3] (stereo in doubt) [[^67Ga]Ga-GAS1] , give its measured Biodistribution, Intestines value.
Outgoing: 2.84

###

Test system: SCID mice bearing twin HEK293-CCK2i4svR and wtHEK293 tumors
Assay: Biodistribution in SCID mice bearing twin HEK293-CCK2i4svR and wtHEK293 xenografts
Format: in vivo
Details: 4 h pi
recorded_endpoint: Biodistribution, Blood (%IA/g)
Number in %IA/g, nothing else.

| compound | measurement_target | Biodistribution, Blood (%IA/g) |
| --- | --- | --- |
| CC(C)(C)C(=O)CN1C(=O)[C@H](NC(=O)Nc2cccc(C(=O)NCCOCCOCCOCCNC(=O)[C@@H](CCC(=O)O)NC(=O)CCC(C(=O)[O-])N3CCN(CC(=O)[O-])CCN(CC(=O)[O-])CC3)c2)CN(C2CCCCC2)c2ccccc21.[111In+3] (some centres unmarked) [[^111In]In-GAS2] | SCID mice bearing twin HEK293-CCK2i4svR and wtHEK293 tumors | 6.40 |
| CC(C)(C)C(=O)CN1C(=O)[C@H](NC(=O)Nc2cccc(C(=O)NCCOCCOCCOCCNC(=O)[C@H](CCC(=O)O)NC(=O)CN3CCN(CC(=O)[O-])CCN(CC(=O)[O-])CCN(CC(=O)[O-])CC3)c2)CN(C2CCCCC2)c2ccccc21.[177Lu+3] (stereo in doubt) [[^177Lu]Lu-GAS1] | SCID mice bearing twin HEK293-CCK2i4svR and wtHEK293 tumors | 0.99 |
| CC(C)(C)C(=O)CN1C(=O)[C@H](NC(=O)Nc2cccc(C(=O)NCCOCCOCCOCCNC(=O)[C@@H](CCC(=O)O)NC(=O)CCC(C(=O)O)N3CCN(CC(=O)[O-])CCN(CC(=O)[O-])CCN(CC(=O)[O-])CC3)c2)CN(C2CCCCC2)c2ccccc21.[111In+3] (some centres unmarked) [[^111In]In-GAS3] | SCID mice bearing twin HEK293-CCK2i4svR and wtHEK293 tumors | 2.42 |
| CC(C)(C)C(=O)CN1C(=O)[C@H](NC(=O)Nc2cccc(C(=O)NCCOCCOCCOCCNC(=O)[C@H](CCC(=O)O)NC(=O)CN3CCN(CC(=O)[O-])CCN(CC(=O)[O-])CCN(CC(=O)[O-])CC3)c2)CN(C2CCCCC2)c2ccccc21.[67Ga+3] (stereo in doubt) [[^67Ga]Ga-GAS1] | SCID mice bearing twin HEK293-CCK2i4svR and wtHEK293 tumors | 1.25 |

Incoming: For the compound CC(C)(C)C(=O)CN1C(=O)[C@H](NC(=O)Nc2cccc(C(=O)NCCOCCOCCOCCNC(=O)[C@H](CCC(=O)O)NC(=O)CCC(C(=O)[O-])N3CCN(CC(=O)[O-])CCN(CC(=O)[O-])CC3)c2)CN(C2CCCCC2)c2ccccc21.[67Ga+3] (stereo in doubt) [[^67Ga]Ga-GAS2] , give its measured Biodistribution, Blood value.
Outgoing: 0.19

###

# Lookup of reported Biodistribution, Spleen keyed by entry
Tested on: SCID mice bearing twin HEK293-CCK2i4svR and wtHEK293 tumors
Experiment: Biodistribution in SCID mice bearing twin HEK293-CCK2i4svR and wtHEK293 xenografts
Format: in vivo
Conditions: 24 h pi
Kindly format the answer as number then unit.

| compound | Biodistribution, Spleen |
| --- | --- |
| CC(C)(C)C(=O)CN1C(=O)[C@H](NC(=O)Nc2cccc(C(=O)NCCOCCOCCOCCNC(=O)[C@@H](CCC(=O)O)NC(=O)CCC(C(=O)O)N3CCN(CC(=O)[O-])CCN(CC(=O)[O-])CCN(CC(=O)[O-])CC3)c2)CN(C2CCCCC2)c2ccccc21.[111In+3] (stereo partly shown) [[^111In]In-GAS3] | 0.43 ± 0.09 %IA/g |
| CC(C)(C)C(=O)CN1C(=O)[C@H](NC(=O)Nc2cccc(C(=O)NCCOCCOCCOCCNC(=O)[C@H](CCC(=O)O)NC(=O)CN3CCN(CC(=O)[O-])CCN(CC(=O)[O-])CCN(CC(=O)[O-])CC3)c2)CN(C2CCCCC2)c2ccccc21.[67Ga+3] (stereo in doubt) [[^67Ga]Ga-GAS1] | 0.51 ± 0.12 %IA/g |
| CC(C)(C)C(=O)CN1C(=O)[C@H](NC(=O)Nc2cccc(C(=O)NCCOCCOCCOCCNC(=O)[C@@H](CCC(=O)O)NC(=O)CCC(C(=O)[O-])N3CCN(CC(=O)[O-])CCN(CC(=O)[O-])CC3)c2)CN(C2CCCCC2)c2ccccc21.[111In+3] (stereo partly shown) [[^111In]In-GAS2] | 0.51 ± 0.09 %IA/g |

Incoming: For the compound CC(C)(C)C(=O)CN1C(=O)[C@H](NC(=O)Nc2cccc(C(=O)NCCOCCOCCOCCNC(=O)[C@H](CCC(=O)O)NC(=O)CCC(C(=O)[O-])N3CCN(CC(=O)[O-])CCN(CC(=O)[O-])CC3)c2)CN(C2CCCCC2)c2ccccc21.[67Ga+3] (stereo in doubt) [[^67Ga]Ga-GAS2] , give its measured Biodistribution, Spleen value.
Outgoing: 0.35 ± 0.02 %IA/g

Where these numbers come from: paper PMC8954547
